system: MDA-MB-435 melanoma; experiment: NCI-60 one-dose screen, 48 h (100 = growth as untreated, 0 = no growth, -100 = all killed); settings: 10 µM unless noted
Compounds without any hit were thinned out: in the full panel of roughly 83,000, 20% have a hit.
Record Satisfied whenever growth is at 20% or higher; record Not satisfied when lower.

molecule	cat
CCCCCCCCc1ccc(CCC(N)(CO)CO)cc1	Not satisfied
COc1cc(NC(=O)CSc2nc3ccc(Cl)cc3c(=O)n2-c2ccc(F)cc2)cc(OC)c1OC	Satisfied
C/C=C(/C)C(=O)OC1C=C(CO)C(=O)C(OC(=O)C(C)(O)C(C)Cl)C1C(C)C (stereo not given)	Not satisfied
CCCCN(CCCC)c1ccc(C(=O)O)cc1	Satisfied
COC(=O)c1ccc2[nH]c(O)c(C(=Nc3ccc(N(C)C(=O)CN4CCN(C)CC4)cc3)c3ccc4c(c3)OCO4)c2c1	Satisfied
